Record form. Attribute: TGI. Fill in for each entry.
Test system: TK-10
measurement_description: Growth inhibition of human TK10 cells by sulforhodamine B assay
Type: functional
measurement_setup: read-out: TGI
Numbers only, in µM.

*Q* For TK-10, give the measured TGI of the entry C/C=C(/C)C(=O)O[C@@H]1CC(C)(C)C[C@H]2C3=CC[C@@H]4[C@@]5(C)CC[C@H](O)C(C)(C)[C@@H]5CC[C@@]4(C)[C@]3(C)CC[C@@]12C(=O)O
*A* 4.63

*Q* For TK-10, give the measured TGI of the entry CC(C)=CC(=O)O[C@@H]1CC(C)(C)C[C@H]2C3=CC[C@@H]4[C@@]5(C)CC[C@H](O)C(C)(C)[C@@H]5CC[C@@]4(C)[C@]3(C)CC[C@@]12C(=O)O
*A* 27.7

*Q* For TK-10, give the measured TGI of the entry CC1(C)C[C@@H](O)[C@]2(C(=O)O)CC[C@]3(C)C(=CC[C@@H]4[C@@]5(C)C/C(=C\C=C\c6ccccc6)C(=O)C(C)(C)[C@@H]5CC[C@]43C)[C@@H]2C1
*A* 12.8

Next up:
*Q* For TK-10, give the measured TGI of the entry CC(C)=CC(=O)O[C@@H]1CC(C)(C)C[C@H]2C3=CC[C@@H]4[C@@]5(C)CCC(=O)C(C)(C)[C@@H]5CC[C@@]4(C)[C@]3(C)CC[C@@]12C(=O)O
*A* 49.6

====

Record form. Attribute: growth at 10 µM. Fill in for each entry.
Tested on: UO-31
measurement_description: Growth inhibition of human UO31 cells assessed as cell growth at 10 uM by sulforhodamine B assay
Assay type: functional
measurement_setup: read-out: Activity
Numbers only, in %.

Worked cases, growth at 10 µM given:
*Q* For UO-31, give the measured growth at 10 µM of the entry CC1(C)C[C@@H](O)[C@]2(C(=O)O)CC[C@]3(C)C(=CC[C@@H]4[C@@]5(C)CCC(=O)C(C)(C)[C@@H]5CC[C@]43C)[C@@H]2C1
*A* 86.1

*Q* For UO-31, give the measured growth at 10 µM of the entry CC1(C)C[C@@H](O)[C@]2(C(=O)O)CC[C@]3(C)C(=CC[C@@H]4[C@@]5(C)C/C(=C\C=C\c6ccccc6)C(=O)C(C)(C)[C@@H]5CC[C@]43C)[C@@H]2C1
*A* 40.3

*Q* For UO-31, give the measured growth at 10 µM of the entry C/C=C(/C)C(=O)O[C@@H]1CC(C)(C)C[C@H]2C3=CC[C@@H]4[C@@]5(C)CC[C@H](O)C(C)(C)[C@@H]5CC[C@@]4(C)[C@]3(C)CC[C@@]12C(=O)O
*A* -26

*Q* For UO-31, give the measured growth at 10 µM of the entry CC1(C)C[C@@H](O)[C@]2(C(=O)O)CC[C@]3(C)C(=CC[C@@H]4[C@@]5(C)CC[C@H](O)C(C)(C)[C@@H]5CC[C@]43C)[C@@H]2C1
*A* 85.5

*Q* For UO-31, give the measured growth at 10 µM of the entry CC(C)=CC(=O)O[C@@H]1CC(C)(C)C[C@H]2C3=CC[C@@H]4[C@@]5(C)CC[C@H](O)C(C)(C)[C@@H]5CC[C@@]4(C)[C@]3(C)CC[C@@]12C(=O)O
*A* 60.9

*Q* For UO-31, give the measured growth at 10 µM of the entry CC(C)=CC(=O)O[C@@H]1CC(C)(C)C[C@H]2C3=CC[C@@H]4[C@@]5(C)CCC(=O)C(C)(C)[C@@H]5CC[C@@]4(C)[C@]3(C)CC[C@@]12C(=O)O
*A* 42

Okay, here is my list. What is growth at 10 µM for each of these?
1. C/C=C(/C)C(=O)O[C@@H]1CC(C)(C)C[C@H]2C3=CC[C@@H]4[C@@]5(C)CCC(=O)C(C)(C)[C@@H]5CC[C@@]4(C)[C@]3(C)CC[C@@]12C(=O)O
2. COc1cc(/C=C2\C[C@]3(C)[C@H]4CC=C5[C@@H]6CC(C)(C)C[C@@H](O)[C@]6(C(=O)O)CC[C@@]5(C)[C@]4(C)CC[C@H]3C(C)(C)C2=O)ccc1O

*A*
1: 42.6; 2: 75.5

====

Tested on: SW-620
measurement_description: Growth inhibition of human SW620 cells by sulforhodamine B assay
Format: functional
measurement_setup: read-out: TGI
readout_name: TGI (µM)
Numbers only, in µM.

Worked cases, TGI given:
*Q* Fill in reported TGI for this entry: CC(C)=CC(=O)O[C@@H]1CC(C)(C)C[C@H]2C3=CC[C@@H]4[C@@]5(C)CC[C@H](O)C(C)(C)[C@@H]5CC[C@@]4(C)[C@]3(C)CC[C@@]12C(=O)O [Reduced Lantadene B]
*A* 52.6

*Q* Fill in reported TGI for this entry: CC(C)=CC(=O)O[C@@H]1CC(C)(C)C[C@H]2C3=CC[C@@H]4[C@@]5(C)CCC(=O)C(C)(C)[C@@H]5CC[C@@]4(C)[C@]3(C)CC[C@@]12C(=O)O
*A* 36.1

*Q* Fill in reported TGI for this entry: CC1(C)C[C@@H](O)[C@]2(C(=O)O)CC[C@]3(C)C(=CC[C@@H]4[C@@]5(C)C/C(=C\C=C\c6ccccc6)C(=O)C(C)(C)[C@@H]5CC[C@]43C)[C@@H]2C1
*A* 15.4

Next up:
*Q* Fill in reported TGI for this entry: C/C=C(/C)C(=O)O[C@@H]1CC(C)(C)C[C@H]2C3=CC[C@@H]4[C@@]5(C)CC[C@H](O)C(C)(C)[C@@H]5CC[C@@]4(C)[C@]3(C)CC[C@@]12C(=O)O [Reduced Lantadene A]
*A* 6.62

====

System: SF-268
measurement_description: Growth inhibition of human SF268 cells by sulforhodamine B assay
Type: functional
measurement_setup: read-out: pTGI (converted)
readout_name: TGI (µM)
Numbers only, in µM.

*Q* For SF-268, give the measured TGI of the entry CC(C)=CC(=O)O[C@@H]1CC(C)(C)C[C@H]2C3=CC[C@@H]4[C@@]5(C)CC[C@H](O)C(C)(C)[C@@H]5CC[C@@]4(C)[C@]3(C)CC[C@@]12C(=O)O
*A* 26.3

*Q* For SF-268, give the measured TGI of the entry C/C=C(/C)C(=O)O[C@@H]1CC(C)(C)C[C@H]2C3=CC[C@@H]4[C@@]5(C)CC[C@H](O)C(C)(C)[C@@H]5CC[C@@]4(C)[C@]3(C)CC[C@@]12C(=O)O
*A* 4.47

*Q* For SF-268, give the measured TGI of the entry CC(C)=CC(=O)O[C@@H]1CC(C)(C)C[C@H]2C3=CC[C@@H]4[C@@]5(C)CCC(=O)C(C)(C)[C@@H]5CC[C@@]4(C)[C@]3(C)CC[C@@]12C(=O)O
*A* 29.5

Next up:
*Q* For SF-268, give the measured TGI of the entry CC1(C)C[C@@H](O)[C@]2(C(=O)O)CC[C@]3(C)C(=CC[C@@H]4[C@@]5(C)C/C(=C\C=C\c6ccccc6)C(=O)C(C)(C)[C@@H]5CC[C@]43C)[C@@H]2C1
*A* 14.1

====

Tested on: SF-268
measurement_description: Growth inhibition of human SF268 cells assessed as growth inhibition at 10 uM by sulforhodamine B assay
Type: functional
measurement_setup: read-out: GI
readout_name: inhibition of growth at 10 µM

*Q* Fill in reported inhibition of growth at 10 µM for this entry: CC1(C)C[C@@H](O)[C@]2(C(=O)O)CC[C@]3(C)C(=CC[C@@H]4[C@@]5(C)CC[C@H](O)C(C)(C)[C@@H]5CC[C@]43C)[C@@H]2C1
*A* < 10%

*Q* Fill in reported inhibition of growth at 10 µM for this entry: C/C=C(/C)C(=O)O[C@@H]1CC(C)(C)C[C@H]2C3=CC[C@@H]4[C@@]5(C)CCC(=O)C(C)(C)[C@@H]5CC[C@@]4(C)[C@]3(C)CC[C@@]12C(=O)O
*A* 25.9%

Next up:
*Q* Fill in reported inhibition of growth at 10 µM for this entry: COc1cc(/C=C2\C[C@]3(C)[C@H]4CC=C5[C@@H]6CC(C)(C)C[C@@H](O)[C@]6(C(=O)O)CC[C@@]5(C)[C@]4(C)CC[C@H]3C(C)(C)C2=O)ccc1O
*A* < 10%

====

Record form. Attribute: TGI. Fill in for each entry.
measurement_description: Growth inhibition of human Hs 578T cells by sulforhodamine B assay
Format: functional
measurement_setup: read-out: pTGI (converted)
One number for each entry, in µM.

*Q* Fill in reported TGI for this entry: CC(C)=CC(=O)O[C@@H]1CC(C)(C)C[C@H]2C3=CC[C@@H]4[C@@]5(C)CCC(=O)C(C)(C)[C@@H]5CC[C@@]4(C)[C@]3(C)CC[C@@]12C(=O)O
*A* 53.7

*Q* Fill in reported TGI for this entry: C/C=C(/C)C(=O)O[C@@H]1CC(C)(C)C[C@H]2C3=CC[C@@H]4[C@@]5(C)CC[C@H](O)C(C)(C)[C@@H]5CC[C@@]4(C)[C@]3(C)CC[C@@]12C(=O)O [Reduced Lantadene A]
*A* 5.25

*Q* Fill in reported TGI for this entry: CC(C)=CC(=O)O[C@@H]1CC(C)(C)C[C@H]2C3=CC[C@@H]4[C@@]5(C)CC[C@H](O)C(C)(C)[C@@H]5CC[C@@]4(C)[C@]3(C)CC[C@@]12C(=O)O [Reduced Lantadene B]
*A* 12.3

Next up:
*Q* Fill in reported TGI for this entry: CC1(C)C[C@@H](O)[C@]2(C(=O)O)CC[C@]3(C)C(=CC[C@@H]4[C@@]5(C)C/C(=C\C=C\c6ccccc6)C(=O)C(C)(C)[C@@H]5CC[C@]43C)[C@@H]2C1
*A* 20.4

The values you see were collected from ChEMBL document CHEMBL2413072.
